Target: T1, human IL-2Rβ (human, UniProt P14784 27-240, limits assumed)
T1 construct: Recombinant protein, coated (ELISA) or immobilised on CM5 (SPR); also called hu IL-2R; interleukin 2 receptor β-chain
T1 sequence: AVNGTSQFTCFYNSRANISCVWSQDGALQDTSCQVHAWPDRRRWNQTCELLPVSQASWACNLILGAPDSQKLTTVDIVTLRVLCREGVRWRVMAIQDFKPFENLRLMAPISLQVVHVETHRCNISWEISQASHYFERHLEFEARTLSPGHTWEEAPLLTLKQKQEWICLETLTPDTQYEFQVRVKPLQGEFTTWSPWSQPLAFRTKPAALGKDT
Assay: SPR (Biacore), P.E. off-rate ranking
parameter-measured: koff (s⁻¹)
Lab book: enter the figure in s⁻¹, no units written.

See these solved cases before continuing.
FJ1427_P035MP03F04 (VHH, soluble VHH in periplasmic extract; also called clone nr) VHH: EVQLVESGGGLVQTGGSLRLSCAASGSQFINDVMGWYRQVPGKQRELVADMDDTGSTKYADSVKGRFTILRDSVKNTAYLQMSNLKPEDTGVYYCKAGLWIKGRHSDYWGQGTQVTVSS: 0.000402
FJ1427 P035MP02B12 (VHH, soluble VHH in periplasmic extract; also called clone nr) VHH: QVQLVESGGGLVQAGGSLRLSCAASGRADSNAIMAWFRQAPGKEREFIVAVTYSGMPTYQDDSVQGRFTASRDNAKNTVYLQMNSLKPEDTAVYYCAARMYSASTYYGDYDYWGQGTQVTVSS: 0.000716
FJ1427_P035MP03H09 (VHH, soluble VHH in periplasmic extract; also called clone nr) VHH: QVQLVESGGGLVQAGGSLRLSCAASGSIFSINAMGWFRQAPGKEREFVAAISRSGGSTAYVDSVKGRFTISRDNSKNMVHLQMNSLKSEDEAVYYCAATAAVGWTSRWITTDFDSWGQGTQVTVSS: 0.00184

## Input Find the recorded koff belonging to FJ1427_P035MP03H07 (VHH, soluble VHH in periplasmic extract; also called clone nr) VHH: EVQLVESGGGLVQAGGSLRLSCVVSGDVFVRYTMAWFRQAPGKEREFVAAVTDSGRTTEYVDSVKGRFTVSRDNAKNTVYLQMNNLKPEDTAVYYCAANTDYFQIRSVDNNAWGQGTQVTVSS and report it.
## Output 0.00172
